Molecular target: CYP121A1 (Mycobacterium tuberculosis, UniProt P9WPP7)
Construct: made in house
Sequence (P9WPP7 whole entry): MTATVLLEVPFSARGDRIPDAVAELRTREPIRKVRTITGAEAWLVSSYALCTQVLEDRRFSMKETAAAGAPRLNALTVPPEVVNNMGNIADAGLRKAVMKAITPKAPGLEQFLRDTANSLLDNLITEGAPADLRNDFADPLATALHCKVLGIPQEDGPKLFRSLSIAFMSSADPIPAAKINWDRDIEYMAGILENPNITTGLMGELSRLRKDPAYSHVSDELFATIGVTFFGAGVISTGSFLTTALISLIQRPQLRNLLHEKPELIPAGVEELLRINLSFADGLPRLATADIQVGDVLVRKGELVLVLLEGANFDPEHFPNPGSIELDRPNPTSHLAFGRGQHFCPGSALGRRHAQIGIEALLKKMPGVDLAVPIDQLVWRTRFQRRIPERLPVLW
Assay: biochemical
Assay type: binding
Conditions: UV-vis optical titration, 3–5 μM CYP121A1, 25 °C, pH 7.85, triplicate
Assay Endpoint: Kd (µM)
Respond with the bare value in µM.

A selection of reference data follows.
Find the measured Kd of CC(C)c1ccc(-c2nn(-c3ccccc3)cc2Cn2ccnc2)cc1 [10 e] and report it.
22.5

Find the measured Kd of O=C(NCCCn1ccnc1)c1cn(-c2ccccc2)nc1-c1cccnc1 [13 b] and report it.
85.6

Find the measured Kd of CC(C)Cc1ccc(-c2nn(-c3ccccc3)cc2Cn2ccnc2)cc1 [10 f] and report it.
0.22

Find the measured Kd of O=C(NCc1ccncc1)c1cn(-c2ccccc2)nc1-c1ccncc1 [14 a] and report it.
219

Attention now turns to another entry.
Find the measured Kd of COc1ccc(-n2nc(Cn3ccnc3)cc2C)cc1 [Compound 23] and report it.
34.5

* * *

Molecular target: CYP121A1 (Mycobacterium tuberculosis, UniProt P9WPP7)
Construct: made in house
Test: biochemical
Format: binding
Conditions: UV-vis optical titration, 3–5 μM CYP121A1, 25 °C, pH 7.85, triplicate
Response field label takes 1 (yes) when Kd is strictly below 50 µM and 0 (no) in all other cases.

Consider c1ccc(-n2cc(Cn3cncn3)c(-c3cccnc3)n2)cc1 [11 b] . Does its Kd lie strictly below 50 µM?
0 (no)

More entries:
Consider c1ccc(-n2cc(Cn3ccnc3)c(-c3cccnc3)n2)cc1 [10 b] . Does its Kd lie strictly below 50 µM?
0 (no)

Consider O=C(NCc1ccncc1)c1cn(-c2ccccc2)nc1-c1cccnc1 [14 b] . Does its Kd lie strictly below 50 µM?
1 (yes)

Consider CCc1ccc(-c2nn(-c3ccccc3)cc2Cn2ccnc2)cc1 [10 c] . Does its Kd lie strictly below 50 µM?
1 (yes)

Consider c1ccc(-n2cc(Cn3ccnc3)c(-c3ccncc3)n2)cc1 [10 a] . Does its Kd lie strictly below 50 µM?
0 (no)

Consider O=C(NCCCn1ccnc1)c1cn(-c2ccccc2)nc1-c1ccncc1 [13 a] . Does its Kd lie strictly below 50 µM?
0 (no)

* * *

Target: CYP121A1 (Mycobacterium tuberculosis, UniProt P9WPP7)
Construct: made in house
Experiment: biochemical
Assay type: binding
Conditions: Soret maximum ligand-free to ligand-bound CYP121A1
Assay Endpoint: Soret peak shift

Find the measured Soret peak shift of c1ccc(-n2cc(Cn3ccnc3)c(-c3ccncc3)n2)cc1 and report it.
416.5 to 419 nm

Find the measured Soret peak shift of CC(C)c1ccc(-c2nn(-c3ccccc3)cc2Cn2ccnc2)cc1 and report it.
416.5 to 423 nm

Find the measured Soret peak shift of c1ccc(-n2cc(Cn3ccnc3)c(-c3ccc4c(c3)OCO4)n2)cc1 and report it.
416.5 to 422.5 nm

Find the measured Soret peak shift of c1ccc(-c2ccc(-c3nn(-c4ccccc4)cc3Cn3ccnc3)cc2)cc1 and report it.
416.5 to 423.5 nm

Find the measured Soret peak shift of O=C(NCCCn1ccnc1)c1cn(-c2ccccc2)nc1-c1ccncc1 and report it.
416.5 to 423.5 nm

More entries:
Find the measured Soret peak shift of COc1ccc(-n2nc(Cn3cncn3)cc2C)cc1 and report it.
416.5 to 418 nm

Find the measured Soret peak shift of CC(C)Cc1ccc(-c2nn(-c3ccccc3)cc2Cn2ccnc2)cc1 and report it.
416.5 to 423.5 nm

Find the measured Soret peak shift of O=C(NCc1ccncc1)c1cn(-c2ccccc2)nc1-c1ccncc1 and report it.
416.5 to 419.5 nm

* * *

Catalogue of melting point readings, one per entry.

A selection of reference data follows.
Find the measured melting point of CCc1ccc(-c2nn(-c3ccccc3)cc2Cn2ccnc2)cc1 and report it.
74 to 76 °C

Find the measured melting point of c1ccc(-c2ccc(-c3nn(-c4ccccc4)cc3Cn3ccnc3)cc2)cc1 and report it.
114 to 115 °C

Find the measured melting point of c1ccc(-n2cc(Cn3ccnc3)c(-c3ccc4c(c3)OCO4)n2)cc1 and report it.
62 to 64 °C

Find the measured melting point of CC(C)(C)c1ccc(-c2nn(-c3ccccc3)cc2Cn2ccnc2)cc1 and report it.
116 to 117 °C

Find the measured melting point of c1ccc(-n2cc(Cn3ccnc3)c(-c3ccncc3)n2)cc1 and report it.
80 to 82 °C

More entries:
Find the measured melting point of O=C(NCc1ccncc1)c1cn(-c2ccccc2)nc1-c1ccncc1 and report it.
206 to 208 °C

Find the measured melting point of O=C(NCc1ccncc1)c1cn(-c2ccccc2)nc1-c1cccnc1 and report it.
206 to 208 °C

Find the measured melting point of COc1ccc(-n2nc(C)cc2Cn2cncn2)cc1 and report it.
47 to 48 °C

Find the measured melting point of c1ccc(-n2cc(Cn3cncn3)c(-c3cccnc3)n2)cc1 and report it.
110 to 112 °C

Find the measured melting point of O=C(NCCCn1ccnc1)c1cn(-c2ccccc2)nc1-c1cccnc1 and report it.
80 to 82 °C

Find the measured melting point of O=C(NCCCn1ccnc1)c1cn(-c2ccccc2)nc1-c1ccncc1 and report it.
104 to 106 °C

Find the measured melting point of c1ccc(-n2cc(Cn3cncn3)c(-c3ccncc3)n2)cc1 and report it.
98 to 100 °C

* * *

Target: CYP121A1 (Mycobacterium tuberculosis)
Construct: made in house
Experiment: biochemical
Type: binding
Details: extent of the Soret absorbance red shift on binding
Assay Endpoint: Soret maxima shifting by (nm)
Respond with the bare value in nm.

Find the measured Soret maxima shifting by of O=C(NCCCn1ccnc1)c1cn(-c2ccccc2)nc1-c1ccncc1 and report it.
7

Find the measured Soret maxima shifting by of CC(C)Cc1ccc(-c2nn(-c3ccccc3)cc2Cn2ccnc2)cc1 and report it.
7

Find the measured Soret maxima shifting by of CC(C)c1ccc(-c2nn(-c3ccccc3)cc2Cn2ccnc2)cc1 and report it.
6.5

More entries:
Find the measured Soret maxima shifting by of Clc1[nH]c2ccccc2c1-c1nn(-c2ccccc2)cc1Cn1ccnc1 and report it.
7

Find the measured Soret maxima shifting by of c1ccc(-c2ccc(-c3nn(-c4ccccc4)cc3Cn3ccnc3)cc2)cc1 and report it.
7

* * *

Molecular target: CYP121A1 (Mycobacterium tuberculosis, UniProt P9WPP7)
Construct: made in house
Test: biochemical
Format: binding
Conditions: UV-vis optical titration, 3–5 μM CYP121A1, 25 °C, pH 7.85, triplicate
Assay Endpoint: pKd
Note: pKd values are expressed as the negative base-10 logarithm of concentration in M.

A selection of reference data follows.
Find the measured pKd of COc1ccc(-n2nc(C)cc2Cn2ccnc2)cc1 and report it.
4.64

Find the measured pKd of c1ccc(-n2cc(Cn3ccnc3)c(-c3ccc4c(c3)OCO4)n2)cc1 and report it.
5.00

Find the measured pKd of Clc1[nH]c2ccccc2c1-c1nn(-c2ccccc2)cc1Cn1ccnc1 and report it.
5.48

Find the measured pKd of c1ccc(-n2cc(Cn3cncn3)c(-c3ccncc3)n2)cc1 and report it.
3.94

Attention now turns to another entry.
Find the measured pKd of c1ccc(-c2ccc(-c3nn(-c4ccccc4)cc3Cn3ccnc3)cc2)cc1 and report it.
5.54

* * *

Catalogue of Kd readings, one per entry.
Molecular target: CYP121A1 (Mycobacterium tuberculosis)
Construct: made in house
Experiment: biochemical
Format: binding
Settings: UV-vis optical titration, 3–5 μM CYP121A1, 25 °C, pH 7.85, triplicate
Respond with the bare value in µM.

A selection of reference data follows.
Find the measured Kd of COc1ccc(-n2nc(Cn3cncn3)cc2C)cc1 and report it.
105

Find the measured Kd of CCCc1ccc(-c2nn(-c3ccccc3)cc2Cn2ccnc2)cc1 and report it.
53.7

Find the measured Kd of CC(C)(C)c1ccc(-c2nn(-c3ccccc3)cc2Cn2ccnc2)cc1 and report it.
4.81

Attention now turns to another entry.
Find the measured Kd of COc1ccc(-n2nc(C)cc2Cn2cncn2)cc1 and report it.
98.3

* * *

Biological target: CYP121A1 (Mycobacterium tuberculosis)
Construct: made in house
Test: biochemical
Type: binding
Settings: Soret maximum ligand-free to ligand-bound CYP121A1
Catalogue of Soret peak shift readings, one per entry.

Find the measured Soret peak shift of O=C(NCCCn1ccnc1)c1cn(-c2ccccc2)nc1-c1cccnc1 and report it.
416.5 to 417.5 nm

Find the measured Soret peak shift of c1ccc(-n2cc(Cn3cncn3)c(-c3cccnc3)n2)cc1 and report it.
416.5 to 417.5 nm

Find the measured Soret peak shift of CC(C)(C)c1ccc(-c2nn(-c3ccccc3)cc2Cn2ccnc2)cc1 and report it.
416.5 to 419.5 nm

Find the measured Soret peak shift of CCc1ccc(-c2nn(-c3ccccc3)cc2Cn2ccnc2)cc1 and report it.
416.5 to 420 nm

Find the measured Soret peak shift of O=C(NCc1ccncc1)c1cn(-c2ccccc2)nc1-c1cccnc1 and report it.
416.5 to 417.5 nm

More entries:
Find the measured Soret peak shift of Clc1[nH]c2ccccc2c1-c1nn(-c2ccccc2)cc1Cn1ccnc1 and report it.
416.5 to 423.5 nm
